Test system: pig liver esterase (PLE)
method-description: Enzymatic hydrolysis with pig liver esterase (PLE) in PBS
Assay type: in vitro ADME
assay-context: removal of first masking unit (half-lives of 3); PLE in PBS pH 7.3, 37 °C
value-type: t1/2(1) PLE (min)
Give bare numbers, in min.

CCCCCCCCCC(=O)Oc1ccc(COP(=O)(OCc2ccc(OC(=O)CCCCCCCCC)cc2)OP(=O)(O)OP(=O)(O)OC[C@@H]2C=C[C@H](n3cc(C)c(=O)[nH]c3=O)O2)cc1 [3f, γ-Bis-(4-decanoyloxybenzyl)-d4TTP]	4.92

The recorded t1/2(1) PLE for entry CCCCCCCCC(=O)Oc1ccc(COP(=O)(OCc2ccc(OC(=O)CCCCCCCC)cc2)OP(=O)(O)OP(=O)(O)OC[C@@H]2C=C[C@H](n3cc(C)c(=O)[nH]c3=O)O2)cc1 [3e, γ-Bis-(4-nonanoyloxybenzyl)-d4TTP] equals 0.78

---

System: HIV-2(ROD)
method-description: Anti-HIV activity assay, HIV-2 in TK-deficient CEM/TK− cells
Assay type: cell-based
assay-context: Human immunodeficiency virus 2; thymidine kinase-deficient CEM/TK− cells; mean±s.d., n=2–3
Procedure: Inhibition of HIV-1(IIIB)- and HIV-2(ROD)-induced cytopathicity in wild-type CEM/0 and TK-deficient CEM/TK^− cell cultures was measured in microtitre 96-well plates containing ∼3 × 10^5 CEM cells ml^−1 infected with 100 CCID50 of HIV per millilitre and containing appropriate dilutions of the test compounds. After 4−5 days of incubation at 37 °C in a CO2-controlled humidified atmosphere, CEM giant (syncytium) cell formation was examined microscopically. […]
value-type: EC50 (µM)
One number for each entry, in µM.

The recorded EC50 for entry Cc1cn([C@H]2C=C[C@@H](CO)O2)c(=O)[nH]c1=O [d4T, 3′-deoxy-2′,3′-didehydrothymidine, reference compound] equals 150

---

method-description: Cytotoxicity: inhibition of CEM cell proliferation
Type: cell-based, human
assay-context: human, CEM cells (CD4+ T-cells), 50% cytostatic concentration, mean±s.d., n=2–3
value-type: CC50 (µM)
One number for each entry, in µM.

The recorded CC50 for entry Cc1cn([C@H]2C=C[C@@H](CO)O2)c(=O)[nH]c1=O [d4T, 3′-deoxy-2′,3′-didehydrothymidine, reference compound] equals 79

---

method-description: Chemical hydrolysis in PBS, pH 7.3
Type: physicochemical
assay-context: removal of first masking unit (half-lives of 3); PBS pH 7.3, 37 °C
value-type: t1/2(1) PBS, pH=7.3 (h)
Numbers only, in h.

Recorded t1/2(1) PBS, pH=7.3, per entry:
CCCCCCCCCCCCCC(=O)Oc1ccc(COP(=O)(OCc2ccc(OC(=O)CCCCCCCCCCCCC)cc2)OP(=O)(O)OP(=O)(O)OC[C@@H]2C=C[C@H](n3cc(C)c(=O)[nH]c3=O)O2)cc1	90
CCCCCCCCCC(=O)Oc1ccc(COP(=O)(OCc2ccc(OC(=O)CCCCCCCCC)cc2)OP(=O)(O)OP(=O)(O)OC[C@@H]2C=C[C@H](n3cc(C)c(=O)[nH]c3=O)O2)cc1	44
CCC(=O)Oc1ccc(COP(=O)(OCc2ccc(OC(=O)CC)cc2)OP(=O)(O)OP(=O)(O)OC[C@@H]2C=C[C@H](n3cc(C)c(=O)[nH]c3=O)O2)cc1	17
CCCCCCCCCCCCOC(=O)N(C)CCN(C)C(=O)Oc1ccc(COP(=O)(OCc2ccc(OC(=O)N(C)CCN(C)C(=O)OCCCCCCCCCCCC)cc2)OP(=O)(O)OP(=O)(O)OCC2C=CC(n3cc(C)c(=O)[nH]c3=O)O2)cc1 (stereo not drawn)	48
CCCCCCCCCCCCOC(=O)Oc1ccc(COP(=O)(OCc2ccc(OC(=O)OCCCCCCCCCCCC)cc2)OP(=O)(O)OP(=O)(O)OC[C@@H]2C=C[C@H](n3cc(C)c(=O)[nH]c3=O)O2)cc1	99
CCCCC(=O)Oc1ccc(COP(=O)(OCc2ccc(OC(=O)CCCC)cc2)OP(=O)(O)OP(=O)(O)OC[C@@H]2C=C[C@H](n3cc(C)c(=O)[nH]c3=O)O2)cc1	22
CCCCOC(=O)N(C)CCN(C)C(=O)Oc1ccc(COP(=O)(OCc2ccc(OC(=O)N(C)CCN(C)C(=O)OCCCC)cc2)OP(=O)(O)OP(=O)(O)OCC2C=CC(n3cc(C)c(=O)[nH]c3=O)O2)cc1 (stereo not drawn)	27
CCCCCCCCCCCCCCCC(=O)Oc1ccc(COP(=O)(OCc2ccc(OC(=O)CCCCCCCCCCCCCCC)cc2)OP(=O)(O)OP(=O)(O)OC[C@@H]2C=C[C@H](n3cc(C)c(=O)[nH]c3=O)O2)cc1	73

API: the following record is the query input.
The recorded t1/2(1) PBS, pH=7.3 for entry CCCCCCCCCCCCCCCCCC(=O)Oc1ccc(COP(=O)(OCc2ccc(OC(=O)CCCCCCCCCCCCCCCCC)cc2)OP(=O)(O)OP(=O)(O)OC[C@@H]2C=C[C@H](n3cc(C)c(=O)[nH]c3=O)O2)cc1 equals 50
